target.of.assay: CDK4/Cyclin D1 (Homo sapiens, UniProt P11802)
Sequence (P11802 whole entry): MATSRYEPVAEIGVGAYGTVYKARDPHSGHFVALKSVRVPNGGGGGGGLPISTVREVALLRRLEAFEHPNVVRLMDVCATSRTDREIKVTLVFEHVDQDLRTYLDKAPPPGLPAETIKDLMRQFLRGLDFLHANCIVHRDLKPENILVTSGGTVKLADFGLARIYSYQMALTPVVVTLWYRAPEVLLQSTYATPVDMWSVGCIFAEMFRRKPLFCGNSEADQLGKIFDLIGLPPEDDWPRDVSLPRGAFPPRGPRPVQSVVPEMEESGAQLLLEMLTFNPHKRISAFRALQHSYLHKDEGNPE
Sequence (P24385 whole entry partner): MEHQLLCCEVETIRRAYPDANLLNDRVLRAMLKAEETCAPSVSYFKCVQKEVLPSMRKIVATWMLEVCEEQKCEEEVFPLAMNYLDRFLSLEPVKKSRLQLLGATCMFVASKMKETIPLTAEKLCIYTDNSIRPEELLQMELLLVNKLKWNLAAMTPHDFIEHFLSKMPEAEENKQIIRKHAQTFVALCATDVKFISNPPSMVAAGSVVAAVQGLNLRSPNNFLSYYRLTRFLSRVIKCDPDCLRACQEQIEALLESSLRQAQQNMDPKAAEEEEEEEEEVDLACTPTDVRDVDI
test.name: NanoBRET live-cell target engagement, NanoLuc-CDK4/Cyclin D1 in HEK-293
Format: binding
assay.context: CDK4/D1; experiment 1; read-out: IC50
Consider the cut-off 20 nM. If the recorded IC50 is strictly smaller, the label is t; if not, the label is f.

Q) IC50 strictly < 20 nM for this compound? CC(C)c1cnn2c(NCc3ccccc3)cc(NC[C@H]3CCNC[C@@H]3O)nc12 [CT7001]
A) f

Q) IC50 strictly < 20 nM for this compound? CS(=O)(=O)N1CCC(NC(=O)c2[nH]ncc2NC(=O)c2c(Cl)cccc2Cl)CC1 [NVP-LCQ195]
A) t

Q) IC50 strictly < 20 nM for this compound? CN1CCC(c2c(O)cc(O)c3c(=O)cc(-c4ccccc4Cl)oc23)C1CO (centres unmarked) [P276-00]
A) f

Q) IC50 strictly < 20 nM for this compound? CNc1nc(C)c(-c2nc(Nc3cccc(S(N)(=O)=O)c3)ncc2F)s1 [CDKI-73]
A) t

Q) IC50 strictly < 20 nM for this compound? CN1CCN(c2ccc(Nc3ncc4cc(C#N)c(=O)n(C5CCCC5)c4n3)cc2)CC1 [ON123300]
A) t

Q) IC50 strictly < 20 nM for this compound? N#CCNC(=O)c1ccc(-c2ccnc(Nc3ccc(N4CCOCC4)cc3)n2)cc1 [Momelotinib]
A) f

Q) IC50 strictly < 20 nM for this compound? CC(C)c1c2cc(-c3ccnc(N[C@H]4CC[C@H](NC5CCOCC5)CC4)n3)ccc2nn1C [LY2857785]
A) f
